Entries annotated with measured %Inh
Test system: EIF2AK1
Measurement Parameters: concentration: 1 μM, replicates: in singlicate; n = 1;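 also: KINOMEscan kinase panel screen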
# unit: % | format: bare number

> print(dat)
                                   compound      tgt  unit.string  numeric.readout
1  COC(=O)Nc1nc2ccc(Oc3ccc(CC(=O)Nc4cc(C(F)(F)F)ccc4F)cc3)cc2[nH]1 [GW680903]  EIF2AK1            %                3

Param readout = %Inh; param system = EIF2AK1; param query = Cc1nn2c(=O)cc(N3CCO[C@H](C)C3)nc2n1Cc1cccc(Cl)c1Cl [GSK2373693] ; response: value
1

====

Tested on: CDKL3
Measurement Parameters: concentration: 1 μM, replicates: in singlicate; n = 1
Metric: %Inh
Hey, just the number and the unit after it is fine.

> print(dat)
                                   molecule  result
1  Cc1nn2c(=O)cc(N3CCO[C@H](C)C3)nc2n1Cc1cccc(Cl)c1Cl [GSK2373693]      0%
2  CNc1nccc(-c2ccc3c(N)n[nH]c3c2)n1 [GSK2206003]      0%
3  CC(=O)Nc1cn2nc(Oc3cccc(NC(=O)c4cccc(C(F)(F)F)c4)c3)ccc2n1      6%
4  O=C1NC(=O)C(c2ccccc2Cl)=C1Nc1cccc(Cl)c1 [SB-342409]      0%
5  Nc1ncnc2scc(-c3ccc(NC(=O)Cc4cc(F)ccc4F)cc3)c12.O=C(O)C(F)(F)F [SB-731254-M]      2%
6  CN(C)CCNS(=O)(=O)c1ccc(-c2ccnc3[nH]ccc23)cc1 [GSK977620]      0%
7  Cc1ccc(NC(=O)c2ccnc(N3CCCCC3)c2)cc1-c1ccc(C(=O)NCC2CC2)cc1 [GW775610]      0%
8  Fc1cc(Cl)ccc1Nc1ccnc2cc(-c3ccc(CN4CCOCC4)o3)ccc12 [GW560109]      0%

We next turn to a different molecule, shown below.
Param readout = %Inh; param system = CDKL3; param query = Cc1cc(-c2c(-c3ccc(F)cc3)ncn2CCCN2CCOCC2)nc(N)n1 [SB-222517] ; response: value
35%

====

System: CAMKK2
Measurement Parameters: concentration: 1 μM, replicates: in singlicate; n = 1
Entries annotated with measured %Inh
# unit: % | format: bare number

Please review the following examples before continuing.
> print(dat)
                                   compound  numeric.readout
1  Cc1ccc(-c2ccc3occ(-c4ccc(S(C)=O)cc4)c3c2)nn1 (stereo not shown)               20
2  Cl.Cl.NCC(NC(=O)c1cc(-c2cccnc2)c(-c2ccnc3[nH]ccc23)s1)c1ccccc1 (stereo not shown) [GSK1323434]               24
3  COc1cc(Nc2nccc(N3CCC(NS(=O)(=O)c4ccc(NC(C)=O)cc4)CC3)n2)cc(OC)c1OC [GSK1379825]                8

Data request, read-out %Inh, for CC(C)NCC(Cc1ccccc1)NC(=O)c1cc(Br)c(-c2ccnc3[nH]ccc23)s1.Cl.Cl (stereo not shown) [GSK1383281]
19

====

Tested on: PIK3CG
Measurement Parameters: concentration: 1 μM, replicates: in singlicate; n = 1
Entries annotated with measured %Inh
# unit: % | format: bare number

> print(dat)
                                        smi  metric  numeric.readout
1  CSc1ccc(NC2=C(c3ccc(Cl)cc3)C(=O)NC2=O)cc1    %Inh                0

Data request, read-out %Inh, for Nc1cccc(-c2ccc3c(N)n[nH]c3c2)c1
0

# repeat for Cc1cccc(Nc2nc(NCCN)ncc2C(N)=O)c1
2
